Data provenance is the NIST ThermoML archive (doi:10.1016/j.fluid.2016.06.011).

Settings: 284.15 K; 101.33 kPa; Liquid; Vibrating tube method
Each record here notes measured mass density.
Value type: mass density (kg/m3)

molecule="OCC(F)(F)C(F)(F)C(F)(F)C(F)(F)F [2,2,3,3,4,4,5,5,5-nonafluoropentan-1-ol]" data_value=1678.29
molecule="OCC(F)(F)C(F)(F)C(F)(F)C(F)(F)C(F)(F)F [2,2,3,3,4,4,5,5,6,6,6-undecafluorohexan-1-ol]" data_value=1735.19
molecule="OCC(F)(F)C(F)(F)C(F)(F)F [2,2,3,3,4,4,4-heptafluorobutanol]" data_value=1622.34
molecule="OCC(F)(F)C(F)(F)F [2,2,3,3,3-pentafluoropropanol]" data_value=1531.86

###

Recorded mass density, one value per entry.
Conditions: 318.15 K; 101.33 kPa; Liquid; Vibrating tube method
Value type: mass density (kg/m3)

compound="OCC(F)(F)C(F)(F)C(F)(F)C(F)(F)F [2,2,3,3,4,4,5,5,5-nonafluoropentan-1-ol]" value_type="mass density" data_value=1610.9
compound="OCC(F)(F)C(F)(F)F [2,2,3,3,3-pentafluoropropanol]" value_type="mass density" data_value=1465.89
compound="OCC(F)(F)C(F)(F)C(F)(F)C(F)(F)C(F)(F)F [2,2,3,3,4,4,5,5,6,6,6-undecafluorohexan-1-ol]" value_type="mass density" data_value=1668.32
compound="OCC(F)(F)C(F)(F)C(F)(F)F [2,2,3,3,4,4,4-heptafluorobutanol]" value_type="mass density" data_value=1554.58

###

Conditions: 297.15 K; 101.33 kPa; Liquid; Vibrating tube method
Value type: mass density (kg/m3)

compound="OCC(F)(F)C(F)(F)C(F)(F)C(F)(F)C(F)(F)F [2,2,3,3,4,4,5,5,6,6,6-undecafluorohexan-1-ol]" data_value=1710.32
compound="OCC(F)(F)C(F)(F)C(F)(F)C(F)(F)F [2,2,3,3,4,4,5,5,5-nonafluoropentan-1-ol]" data_value=1653.26
compound="OCC(F)(F)C(F)(F)C(F)(F)F [2,2,3,3,4,4,4-heptafluorobutanol]" data_value=1597.31
compound="OCC(F)(F)C(F)(F)F [2,2,3,3,3-pentafluoropropanol]" data_value=1507.54

###

Reported mass density values follow for various compounds
Conditions: 292.15 K; 101.33 kPa; Liquid; Vibrating tube method
Value type: mass density (kg/m3)

compound=OCC(F)(F)C(F)(F)C(F)(F)C(F)(F)C(F)(F)F value_type="mass density" data_value=1719.98
compound=OCC(F)(F)C(F)(F)C(F)(F)C(F)(F)F value_type="mass density" data_value=1662.98
compound=OCC(F)(F)C(F)(F)C(F)(F)F value_type="mass density" data_value=1607.04
compound=OCC(F)(F)C(F)(F)F value_type="mass density" data_value=1517

###

Listed here: items and their measured mass density.
Settings: 283.15 K; 101.33 kPa; Liquid; Vibrating tube method
Value type: mass density (kg/m3)

compound=OCC(F)(F)C(F)(F)C(F)(F)F unit_of_measure=kg/m3 data_value=1624.23
compound=OCC(F)(F)C(F)(F)F unit_of_measure=kg/m3 data_value=1533.69
compound=OCC(F)(F)C(F)(F)C(F)(F)C(F)(F)F unit_of_measure=kg/m3 data_value=1680.18
compound=OCC(F)(F)C(F)(F)C(F)(F)C(F)(F)C(F)(F)F unit_of_measure=kg/m3 data_value=1737.07

###

Conditions: 303.15 K; 101.33 kPa; Liquid; Vibrating tube method
Parameter: mass density. Scope: all listed entries.
Value type: mass density (kg/m3)

compound=OCC(F)(F)C(F)(F)C(F)(F)F unit_of_measure=kg/m3 data_value=1585.41
compound=OCC(F)(F)C(F)(F)C(F)(F)C(F)(F)F unit_of_measure=kg/m3 data_value=1641.42
compound=OCC(F)(F)C(F)(F)F unit_of_measure=kg/m3 data_value=1495.97
compound=OCC(F)(F)C(F)(F)C(F)(F)C(F)(F)C(F)(F)F unit_of_measure=kg/m3 data_value=1698.57

###

Details: 285.15 K; 101.33 kPa; Liquid; Vibrating tube method
Value type: mass density (kg/m3)

compound=OCC(F)(F)C(F)(F)C(F)(F)C(F)(F)C(F)(F)F value_type="mass density" unit_of_measure=kg/m3 data_value=1733.3
compound=OCC(F)(F)C(F)(F)F value_type="mass density" unit_of_measure=kg/m3 data_value=1530.02
compound=OCC(F)(F)C(F)(F)C(F)(F)C(F)(F)F value_type="mass density" unit_of_measure=kg/m3 data_value=1676.39
compound=OCC(F)(F)C(F)(F)C(F)(F)F value_type="mass density" unit_of_measure=kg/m3 data_value=1620.44

###

Conditions: 294.15 K; 101.33 kPa; Liquid; Vibrating tube method
± gives the expanded uncertainty stated by the source.
Value type: mass density

compound="OCC(F)(F)C(F)(F)C(F)(F)F [2,2,3,3,4,4,4-heptafluorobutanol]" data_value="1603.16 ± 2.3 kg/m3"
compound="OCC(F)(F)C(F)(F)C(F)(F)C(F)(F)C(F)(F)F [2,2,3,3,4,4,5,5,6,6,6-undecafluorohexan-1-ol]" data_value="1716.13 ± 2.7 kg/m3"
compound="OCC(F)(F)C(F)(F)C(F)(F)C(F)(F)F [2,2,3,3,4,4,5,5,5-nonafluoropentan-1-ol]" data_value="1659.11 ± 5.4 kg/m3"
compound="OCC(F)(F)C(F)(F)F [2,2,3,3,3-pentafluoropropanol]" data_value="1513.23 ± 2.1 kg/m3"

###

Recorded mass density for the following molecules
Details: 347.15 K; 101.33 kPa; Liquid; Vibrating tube method
± gives the expanded uncertainty stated by the source.
Value type: mass density

compound=OCC(F)(F)C(F)(F)C(F)(F)C(F)(F)C(F)(F)F data_value="1605.92 ± 2.4 kg/m3"
compound=OCC(F)(F)C(F)(F)C(F)(F)C(F)(F)F data_value="1547.45 ± 4.7 kg/m3"
compound=OCC(F)(F)C(F)(F)F data_value="1401.72 ± 1.8 kg/m3"
compound=OCC(F)(F)C(F)(F)C(F)(F)F data_value="1489.55 ± 2 kg/m3"
